Reference for the values: patent US6395738B1

Entries and their melting point

Solved cases below.
In [3]: df
Out[3]:
                                   compound  reported_result
0  CCC(CO)N1CCN(C(=O)c2cc3c(C(=O)Cc4c(Cl)cncc4Cl)ccc(OC)c3o2)CC1 (stereo not drawn) [Compound 19]    150 to 152 °C
1  COc1ccc(C(=O)Cc2c(Cl)cncc2Cl)c2cc(C(=O)N3CCN(CCCCO)CC3)oc12 [Compound 21]    120 to 121 °C
2  COc1ccc(C(=O)Nc2c(Cl)cncc2Cl)c2cc(C(=O)N3CCN(C)CC3)oc12 [Compound 1]    224 to 225 °C
3  CCN1CCN(c2cc3c(C(=O)Cc4c(Cl)cncc4Cl)ccc(C(=O)OC)c3o2)CC1.O=C(O)/C=C/C(=O)O [Compound 15]    196 to 198 °C
4  COc1ccc(C(=O)Nc2c(Cl)cncc2Cl)c2cc(C(=O)N3CCN(CCCO)CC3)oc12 [Compound 6]    180 to 182 °C

Read the next record carefully.
query: If you can, please state the reported melting point value of COc1ccc(C(=O)Cc2c(Cl)cncc2Cl)c2cc(C(=O)N3CCN(C(C)C)CC3)oc12.O=C(O)/C=C/C(=O)O [Compound 16] .
result: 195 to 196 °C

====

Tested on: Male Sunkus murinus
Assay: Vomiting test on male Sunkus
Format: in vivo
Details: Dose (mg) 10; intraperitoneal; observed for 1 hour
READOUT LABEL: Number of animals with vomiting/Number of tested animals

Solved cases below.
In [3]: df
Out[3]:
                               smiles_entry  reported_result
0  COc1ccc(C(=O)Cc2c(Cl)cncc2Cl)c2cc(C(=O)N3CCN(C)CC3)oc12              0/5
1  COc1ccc(C(=O)Nc2c(Cl)cncc2Cl)c2cc(C(=O)N3CCN(C)CC3)oc12              0/5

Read the next record carefully.
query: Item: "COc1ccc(C(=O)Cc2c(Cl)cncc2Cl)c2cc(C(=O)N3CCN(CCO)CC3)oc12" Test system: Male Sunkus murinus Read-out: Number of animals with vomiting/Number of tested animals Value: ?
result: 0/5

====

Entries and their melting point

>>> df
                                   compound  readout_label  reported_result
0  COc1ccc(C(=O)Cc2c(Cl)cncc2Cl)c2cc(C(=O)N3CCN(C(CO)CO)CC3)oc12  melting point    213 to 215 °C
1  COc1ccc(C(=O)Nc2c(Cl)cncc2Cl)c2cc(C(=O)N3CCN(CCOCCO)CC3)oc12  melting point    132 to 133 °C
2  COc1ccc(C(=O)Cc2c(Cl)cncc2Cl)c2cc(C(=O)N3CC(C)N(CCO)C(C)C3)oc12 (centres unmarked)  melting point    187 to 188 °C
3  COc1ccc(C(=O)Nc2c(Cl)cncc2Cl)c2cc(C(=O)N3CC(C)N(C)C(C)C3)oc12 (centres unmarked)  melting point    234 to 236 °C

Read the next record carefully.
query: If you can, please state the reported melting point value of "COc1ccc(C(=O)Cc2c(Cl)cncc2Cl)c2cc(C(=O)N3CCN(CCO)CC3)oc12" .
result: 155 to 156 °C
